- ASSAY EXPLANATION: RP, Thermo Scientific Acclaim RSLC 120 C18, 100 × 2.1 mm, 2.2 µm, 30 °C, 0.2 mL/min, estimated dead time 1.1 min; A: 90% water + 10% methanol + 0.01% formic acid + 5 mM ammonium formate, pH 3.61; B: methanol + 0.01% formic acid + 5 mM ammonium formate, pH 3.61; gradient (min/%B) 0/1 1/1 2/39 13/99.9 15/99.9 15.1/1 20.1/1
- CONDITION: stereoisomer not certain
PROPERTY: LC retention time (min)
Just the number please, in min, no unit attached.

Solved entries:
## Task So what does the record say about LC retention time for Cc1c(N)c(=O)n(-c2ccccc2)n1C [Antipyrine-4-Amino (4-AAP)] ?
## Result 4.69

## Task So what does the record say about LC retention time for CNC(C)C(=O)c1ccc(C)cc1 (stereo not drawn) [Mephedrone] ?
## Result 4.49

## Task So what does the record say about LC retention time for CNCCCC(C#N)(c1ccc(OC)c(OC)c1)C(C)C (stereo not drawn) [D617 (met. of verapamil)] ?
## Result 6.14

## Task So what does the record say about LC retention time for CCC(C)C(=O)OC1CC(C)C=C2C=CC(C)C(CCC3CC(O)CC(=O)O3)C21 (stereo not drawn) [Lovastatin] ?
## Result 12

## Task So what does the record say about LC retention time for CCN(C(C)=O)c1cccc(-c2ccnc3c(C#N)cnn23)c1 [Zaleplon] ?
## Result 6.61

New cases:
## Task So what does the record say about LC retention time for O=c1oc2ccccc2c(O)c1C1CC(c2ccc(OCc3ccc(C(F)(F)F)cc3)cc2)Cc2ccccc21 (stereo not drawn) [Flocoumafen] ?
## Result 12.4

## Task So what does the record say about LC retention time for CCCCn1c(O)c(C(=O)c2cccc3ccccc23)c2ccccc21 [JWH-073-M-2-OH-Ind] ?
## Result 13.5

* * *

- ASSAY EXPLANATION: RP, Thermo Scientific Acclaim RSLC 120 C18, 100 × 2.1 mm, 2.2 µm, 30 °C, 0.2 mL/min, estimated dead time 1.1 min; A: 90% water + 10% methanol + 0.01% formic acid + 5 mM ammonium formate, pH 3.61; B: methanol + 0.01% formic acid + 5 mM ammonium formate, pH 3.61; gradient (min/%B) 0/1 1/1 2/39 13/99.9 15/99.9 15.1/1 20.1/1
- CONDITION: stereoisomer not certain
Listed below: LC retention time values for each entry.
Just the number please, in min, no unit attached.

Solved entries:
## Task So what does the record say about LC retention time for COc1cc2c(cc1OC)C13CCN4CC5=CCOC6CC(=O)N2C1C6C5CC43 (centres undefined) ?
## Result 4.21

## Task So what does the record say about LC retention time for COc1ccc2c3c1OC1C(O)CCC4C(C2)N(C)CCC341 (centres undefined) [Codeine-Dihydro] ?
## Result 3.36

## Task So what does the record say about LC retention time for CSC1=NC(C)(c2ccccc2)C(=O)N1Nc1ccccc1 (centres undefined) ?
## Result 9.22

## Task So what does the record say about LC retention time for Cc1cc(C(C)(C)C)cc(C)c1CC1=NCCN1 ?
## Result 7.75

## Task So what does the record say about LC retention time for CN1C2CCCC1CC(NC(=O)c1nn(C)c3ccccc13)C2 (centres undefined) ?
## Result 4.99

New cases:
## Task So what does the record say about LC retention time for Cc1ccc(C(=CCN2CCCC2)c2cccc(C=CC(=O)O)n2)cc1 ?
## Result 6.66

## Task So what does the record say about LC retention time for CSc1ccc(C(=O)c2[nH]c(=O)[nH]c2C)cc1 ?
## Result 6.67

## Task So what does the record say about LC retention time for CCOC(=O)C1(c2ccccc2)CCC=CC1N(C)C (centres undefined) ?
## Result 5.1

## Task So what does the record say about LC retention time for FC(F)C(F)(F)OCC(Cn1cncn1)c1ccc(Cl)cc1Cl (centres undefined) ?
## Result 10.1
